Test system: UACC-62 melanoma
Experiment: NCI tumour cell line growth inhibition, 48 h
Attribute: TGI

>  <molecule>
C=C1C(=O)O[C@H]2[C@H]1CC/C(COC(=O)C(=O)c1cn(C)c3ccc(Cl)cc13)=C\CC[C@@]1(C)O[C@@H]21

>  <result>
2.08 µM

$$$$

Provide one value: measured TGI of CNC/C(Cl)=N/S(=O)(=O)c1ccc(C)cc1
21.9 µM

Provide one value: measured TGI of COc1ccc(C(=O)C(C(=O)CC(=O)Nc2cccc(C(F)(F)F)c2)c2ccc(OC)cc2)cc1 (configuration not stated)
> 100 µM

Provide one value: measured TGI of O=C(O)c1ccc(Oc2nccc(-c3c(-c4ccc(F)cc4)ncn3C3CCNCC3)n2)cc1
> 25 µM

Provide one value: measured TGI of C1CSCCSCCSCCSC1
> 100 µM

Provide one value: measured TGI of COc1cccc(/C=C2\CCCc3ccccc3C2=O)c1
25.8 µM

Provide one value: measured TGI of CCOC(=O)Cc1ccc2c(c1O)C(=O)c1c(ccc(CC(=O)OCC)c1O)C2=O
> 100 µM

Provide one value: measured TGI of O=C(N/N=C/c1c(-c2ccccc2)no[n+]1[O-])N1CCOCC1
> 100 µM

====

System: HT29 colon
Assay: NCI tumour cell line growth inhibition, 48 h
observed-property: TGI

>  <compound>
O=C1CCCCCCCCCCC1CCCCCBr (stereo unspecified)

>  <result>
95.6 µM

$$$$
>  <compound>
COc1ccc(/C=C2\CN(C)C/C(=C\c3ccc(OC)cc3)C2=O)cc1

>  <result>
> 100 µM

$$$$
>  <compound>
C[C@]12CC[C@@H]3c4cc(-c5ccc(F)cc5)c(O)cc4CC[C@H]3[C@@H]1CC[C@@H]2O

>  <result>
20.2 µM

$$$$
>  <compound>
CN(C)CCCn1c(Cc2ccc(Cl)cc2)nc2cc(C(F)(F)F)ccc21

>  <result>
29.8 µM

$$$$
>  <compound>
COc1cccc2c1CCc1cc3c(N)nc(N)nc3nc1-2

>  <result>
17.3 µM

$$$$

Provide one value: measured TGI of O=C1C=CC(=O)C12CCc1ccccc12
> 100 µM

====

System: COLO 205 colon
Experiment: NCI tumour cell line growth inhibition, 48 h
Attribute: TGI

Past entries and their recorded results:
>  <molecule>
CC(=C/C=C/C=C(C)\C=C\C=C(\C)C(=O)O)/C=C/C=C(/C)C(=O)O

>  <observed-property>
TGI

>  <result>
> 100 µM

$$$$
>  <molecule>
O=C(N/N=C/c1c(-c2ccccc2)no[n+]1[O-])N1CCOCC1

>  <observed-property>
TGI

>  <result>
> 100 µM

$$$$
>  <molecule>
O=C1NC(=O)C(c2ccccc2Cl)=C1Nc1cc(Cl)c(O)c(Cl)c1

>  <observed-property>
TGI

>  <result>
> 25 µM

$$$$

Pending molecule:
Provide one value: measured TGI of NC(=O)CCC(Nc1c2ccccc2nc2ccccc12)C(=O)O (stereo unspecified)
> 100 µM

====

Attribute: TGI
Tested on: ACHN renal
Assay: NCI tumour cell line growth inhibition, 48 h

Past entries and their recorded results:
>  <molecule>
c1ccc(N=C(Nc2ccccc2)N2CCCC2)cc1

>  <observed-property>
TGI

>  <result>
> 100 µM

$$$$
>  <molecule>
COc1cc2ncn(-c3cc(O[C@@H](C)c4ccccc4Cl)c(C(N)=O)s3)c2cc1OC

>  <observed-property>
TGI

>  <result>
> 25 µM

$$$$
>  <molecule>
Nn1c(CCCCCCCCc2nnc(COc3ccc4ccccc4c3O)n2N)nnc1COc1ccc2ccccc2c1O

>  <observed-property>
TGI

>  <result>
> 100 µM

$$$$
>  <molecule>
CCC(C(=O)C(=O)C(CC)P1(=O)OC(C)(C)CN1C(C)(C)C)P1(=O)OC(C)(C)CN1C(C)(C)C (stereo unspecified)

>  <observed-property>
TGI

>  <result>
> 100 µM

$$$$

Provide one value: measured TGI of CCC(=O)Nc1ccccc1C#C/C=C\C#Cc1ccccc1SC
> 100 µM

Provide one value: measured TGI of O=S(CC1(O)CCCCC1)c1ccccc1 (stereo unspecified)
> 100 µM
